- target: activated ERK2 (Homo sapiens (Human))
- Sequence (P28482 whole entry): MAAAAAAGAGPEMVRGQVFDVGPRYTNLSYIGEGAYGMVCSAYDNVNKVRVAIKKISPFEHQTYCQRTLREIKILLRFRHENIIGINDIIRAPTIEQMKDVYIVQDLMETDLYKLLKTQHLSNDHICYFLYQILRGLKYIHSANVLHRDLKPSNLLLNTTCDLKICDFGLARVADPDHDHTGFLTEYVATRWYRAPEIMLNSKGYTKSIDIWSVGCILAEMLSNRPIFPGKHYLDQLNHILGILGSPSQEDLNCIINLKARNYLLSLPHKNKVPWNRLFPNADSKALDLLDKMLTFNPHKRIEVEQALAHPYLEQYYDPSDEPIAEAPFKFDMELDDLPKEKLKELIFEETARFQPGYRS
- experimentNotes: Activated ERK2 kinase assay, ERK2 New conditions (AlphaScreen, ERKtide phosphorylation)
- Assay type: biochemical
- testParameters: 0.25 nM ERK2, 200 nM ERKtide peptide, 35 μM ATP, 30 min preincubation
Listed below: pIC50 values for each entry.
# log scale: pIC50 equals minus log10 of the concentration in mol/L

A selection of reference data follows.
Request: // pIC50 lookup, key: CC(=O)N1CCC(c2cnc(N)c(-c3ccc(C(=O)N[C@H](CO)c4cccc(Cl)c4)c(F)c3)n2)CC1 [Example 61]
Result: 8.91

Request: // pIC50 lookup, key: Cc1nn(C)cc1-c1cnc(N)c(-c2ccc(C(=O)N[C@H](CO)c3cccc(Cl)c3)c(F)c2)c1 [Example 152]
Result: 9.84

Request: // pIC50 lookup, key: CO[C@H]1CC[C@H](c2cnc(N)c(-c3ccc(C(=O)NCc4ccccc4)c(F)c3)n2)CC1 [Example 116]
Result: 7.72

Request: // pIC50 lookup, key: Nc1ncc(C2CCOCC2)nc1-c1ccc(C(=O)NC(c2ccccc2)C(F)(F)F)c(F)c1 (racemic) [Example 51]
Result: 7.57

Request: // pIC50 lookup, key: Cn1cc(-c2cnc(N)c(-c3ccc(C(=O)NCc4cccc(Cl)n4)c(F)c3)c2)cn1 [Example 236]
Result: 7.25

***
Request: // pIC50 lookup, key: Nc1ncc(CCO)nc1-c1ccc(C(=O)N[C@H](CO)c2ccccc2)c(F)c1 [Example 111]
Result: 7.51

Request: // pIC50 lookup, key: Nc1ncc(C2=CCOCC2)nc1-c1ccc(C(=O)N[C@H](CO)c2cccc(Cl)c2)c(F)c1 [Example 428]
Result: 9.66

Request: // pIC50 lookup, key: CN1CCC(c2cnc(N)c(-c3ccc(C(=O)N[C@H](CO)c4cccc(Cl)c4)c(F)c3)c2)CC1=O (stereo partly drawn) [Example 26]
Result: 8.49

Request: // pIC50 lookup, key: Cn1cc(-c2cnc(N)c(-c3ccc(C(=O)N[C@H](CO)c4ccccc4)c(F)c3)c2)cn1 [Example 107]
Result: 8.94

Request: // pIC50 lookup, key: CS(=O)(=O)c1cccc([C@@H](CO)NC(=O)c2ccc(-c3nc(C4CC4)cnc3N)cc2F)c1 [Example 281]
Result: 8.75

Request: // pIC50 lookup, key: N#CCc1cnc(N)c(-c2ccc(C(=O)N[C@H](CO)c3ccccc3)c(F)c2)c1 [Example 134]
Result: 6.69

Request: // pIC50 lookup, key: Nc1ncc(-c2cn[nH]c2)cc1-c1ccc(C(=O)N[C@H](CO)c2ccccc2)c(F)c1 [Example 290]
Result: 8.76

Request: // pIC50 lookup, key: Nc1ncc([C@H]2C[C@H]3COC(=S)N3C2)cc1-c1ccc(C(=O)N[C@H](CO)c2cccc(Cl)c2)c(F)c1 [Example 11]
Result: 8.42

Request: // pIC50 lookup, key: Cn1cc(-c2cnc(N)c(-c3ccc(C(=O)NC4CC4c4ccccc4)c(F)c3)n2)cn1 (stereo not drawn) [Example 155]
Result: 8.72

Request: // pIC50 lookup, key: Cc1c(-c2cnc(N)c(-c3ccc(C(=O)N[C@H](CO)c4ccccc4)c(F)c3)n2)cnn1C [Example 247]
Result: 9.14
